Data credit: patent US12691070B2

- test_name: LNP zeta potential (Zetasizer)
- Assay type: physicochemical
- protocol_conditions: LNP with cirRNA (SEQ ID NO: 1)
endpoint_label: Zeta (mV)

Sample records with Zeta (mV):
>>> recorded_value("CCCCCCCCCC(=O)OCCCCCCCCN(CCCCCCCCOC(=O)CCCCCCCCC)CCOC(=O)NCCN1CCCC1")
13.53
>>> recorded_value("CCCCCCCCC(CCCCCCCC)OC(=O)CCCCCCCN(CCCCCCCCOC(=O)C(CCCCCC)CCCCCCCC)CCCNCCN(C)C (centres unmarked)")
5.356
>>> recorded_value("CCCCC/C=C\\CCOC(=O)CCCCCN(CCCCCCCCOC(=O)C(CCCCCC)CCCCCCCC)CCOC(=O)NCCN(C)C (centres unmarked)")
18.88
>>> recorded_value("CCCCC/C=C\\C/C=C\\CCCCCCCCN(CCCCCCCC/C=C\\C/C=C\\CCCCC)CCOC(=O)NCc1ncc[nH]1")
"−3.335"
>>> recorded_value("CCCCCCCCC(CCCCCCCC)OC(=O)CCCCCCCN(CCCCCCCCOC(=O)C(CCCCCC)CCCCCCCC)CCOC(=O)NCCCN(C)C (centres unmarked)")
20.28
>>> recorded_value("CCCCCCCCCC(=O)OCCCCCCCN(CCCCCCCCOC(=O)C(CCCCCC)CCCCCCCC)CCOC(=O)NCCN1CCCC1 (centres unmarked)")
6.123

a. CCCCCCCCCCC(CCCCCCCC)COC(=O)CCCCCN(CCCCCC(=O)OCC(CCCCCCCC)CCCCCCCCCC)CCCOC(=O)NCCN1CCCCCC1 (centres unmarked)
b. CCCCC/C=C\C/C=C\CCCCCCCCN(CCCCCCCC/C=C\C/C=C\CCCCC)CCOC(=O)[C@@H](N)Cc1c[nH]cn1 [Lipid B, reference compound]
c. CCCCCCCCCC(=O)OCCCCCCCN(CCCCCCCCOC(=O)C(CCCCCC)CCCCCCCC)CCCOC(=O)NCCCN(CC)CC (centres unmarked)
d. CCCCCCCCCC(=O)OCCCCCCCCN(CCCCCCCCOC(=O)CCCCCCCCC)CCOC(=O)NCCN1CCN(C)CC1
e. CCCCC/C=C\CCOC(=O)CCCCCN(CCCCCCCCOC(=O)C(CCCCCC)CCCCCCCC)CCOC(=O)NCc1ncc[nH]1 (centres unmarked)
Challenge: // smallest Zeta (mV) at index 0, largest at the end Show the ranking through the labels, in the order asked for.
Response given: a, e, b, c, d

a. CCCCCCCCCC(=O)OCCCCCCCN(CCCCCCCCOC(=O)C(CCCCCC)CCCCCCCC)CCCOC(=O)NCCN1CCCC1 (centres unmarked)
b. CCCCCCCC/C=C\CCCCCCCCN(CCCCCCCCOC(=O)C(CCCCCC)CCCCCCCC)CCOC(=O)NCCN1CCOCC1 (centres unmarked)
Challenge: Would you mind telling me which has the lower recorded Zeta (mV) between a and b ? Response format: the label of the selected entry.
Response given: b

---

- test_name: LNP size and polydispersity index (PDI) by dynamic light scattering
- Type: physicochemical
- protocol_conditions: LNP with cirRNA (SEQ ID NO: 1)
endpoint_label: PDI

The examples below pair each entry with its known result.
>>> recorded_value("CCCCCCCCC(CCCCCC)C(=O)OCCCCCCCCN(CCCCCCCCOC(=O)C(CCCCCC)CCCCCCCC)CCCOC(=O)NCCN1CCCCCC1 (stereo not shown)")
0.1744
>>> recorded_value("CCCCC/C=C\\C/C=C\\CCCCCCCCN(CCCCCCCC(=O)OC(CCCCCCCC)CCCCCCCC)CCCOC(=O)NCCN1CCCC1")
0.2188
>>> recorded_value("CCCCCCCCC(CCCCCC)C(=O)OCCCCCCCCN(CCCCCCCCCCC(=O)OCCCCCC)CCOC(=O)NCCN(C)C (stereo not shown)")
0.04
>>> recorded_value("CCCCCCCCC(CCCCCC)C(=O)OCCCCCCCCN(CCCCCCCCOC(=O)C(CCCCCC)CCCCCCCC)CCCNCCCN(CC)CC (stereo not shown)")
0.2458

a. CCCCCCCCCCC(CCCCCCCC)COC(=O)CCCCCN(CCCCCC(=O)OCC(CCCCCCCC)CCCCCCCCCC)CCOC(=O)NCCN(C)C (stereo not shown)
b. CCCCC/C=C\C/C=C\CCCCCCCCN(CCCCCC(=O)OCC(CCCCCCCC)CCCCCCCCCC)CCOC(=O)NCCN(C)C (stereo not shown)
c. CCCCCCCCC(CCCCCCCC)OC(=O)CCCCCCCN(CCCCCCCCOC(=O)C(CCCCCC)CCCCCCCC)CCOC(=O)NCCCN(C)C (stereo not shown)
Challenge: Rank by PDI (largest to smallest). Lab note: record answer as labels in requested order.
Response given: c, b, a
(c: 0.2699, b: 0.13, a: 0.08)
